Target: Voltage-dependent N-type calcium channel subunit alpha-1B (Homo sapiens) (UniProt Q00975)
Sequence (Q00975 whole entry, looked up): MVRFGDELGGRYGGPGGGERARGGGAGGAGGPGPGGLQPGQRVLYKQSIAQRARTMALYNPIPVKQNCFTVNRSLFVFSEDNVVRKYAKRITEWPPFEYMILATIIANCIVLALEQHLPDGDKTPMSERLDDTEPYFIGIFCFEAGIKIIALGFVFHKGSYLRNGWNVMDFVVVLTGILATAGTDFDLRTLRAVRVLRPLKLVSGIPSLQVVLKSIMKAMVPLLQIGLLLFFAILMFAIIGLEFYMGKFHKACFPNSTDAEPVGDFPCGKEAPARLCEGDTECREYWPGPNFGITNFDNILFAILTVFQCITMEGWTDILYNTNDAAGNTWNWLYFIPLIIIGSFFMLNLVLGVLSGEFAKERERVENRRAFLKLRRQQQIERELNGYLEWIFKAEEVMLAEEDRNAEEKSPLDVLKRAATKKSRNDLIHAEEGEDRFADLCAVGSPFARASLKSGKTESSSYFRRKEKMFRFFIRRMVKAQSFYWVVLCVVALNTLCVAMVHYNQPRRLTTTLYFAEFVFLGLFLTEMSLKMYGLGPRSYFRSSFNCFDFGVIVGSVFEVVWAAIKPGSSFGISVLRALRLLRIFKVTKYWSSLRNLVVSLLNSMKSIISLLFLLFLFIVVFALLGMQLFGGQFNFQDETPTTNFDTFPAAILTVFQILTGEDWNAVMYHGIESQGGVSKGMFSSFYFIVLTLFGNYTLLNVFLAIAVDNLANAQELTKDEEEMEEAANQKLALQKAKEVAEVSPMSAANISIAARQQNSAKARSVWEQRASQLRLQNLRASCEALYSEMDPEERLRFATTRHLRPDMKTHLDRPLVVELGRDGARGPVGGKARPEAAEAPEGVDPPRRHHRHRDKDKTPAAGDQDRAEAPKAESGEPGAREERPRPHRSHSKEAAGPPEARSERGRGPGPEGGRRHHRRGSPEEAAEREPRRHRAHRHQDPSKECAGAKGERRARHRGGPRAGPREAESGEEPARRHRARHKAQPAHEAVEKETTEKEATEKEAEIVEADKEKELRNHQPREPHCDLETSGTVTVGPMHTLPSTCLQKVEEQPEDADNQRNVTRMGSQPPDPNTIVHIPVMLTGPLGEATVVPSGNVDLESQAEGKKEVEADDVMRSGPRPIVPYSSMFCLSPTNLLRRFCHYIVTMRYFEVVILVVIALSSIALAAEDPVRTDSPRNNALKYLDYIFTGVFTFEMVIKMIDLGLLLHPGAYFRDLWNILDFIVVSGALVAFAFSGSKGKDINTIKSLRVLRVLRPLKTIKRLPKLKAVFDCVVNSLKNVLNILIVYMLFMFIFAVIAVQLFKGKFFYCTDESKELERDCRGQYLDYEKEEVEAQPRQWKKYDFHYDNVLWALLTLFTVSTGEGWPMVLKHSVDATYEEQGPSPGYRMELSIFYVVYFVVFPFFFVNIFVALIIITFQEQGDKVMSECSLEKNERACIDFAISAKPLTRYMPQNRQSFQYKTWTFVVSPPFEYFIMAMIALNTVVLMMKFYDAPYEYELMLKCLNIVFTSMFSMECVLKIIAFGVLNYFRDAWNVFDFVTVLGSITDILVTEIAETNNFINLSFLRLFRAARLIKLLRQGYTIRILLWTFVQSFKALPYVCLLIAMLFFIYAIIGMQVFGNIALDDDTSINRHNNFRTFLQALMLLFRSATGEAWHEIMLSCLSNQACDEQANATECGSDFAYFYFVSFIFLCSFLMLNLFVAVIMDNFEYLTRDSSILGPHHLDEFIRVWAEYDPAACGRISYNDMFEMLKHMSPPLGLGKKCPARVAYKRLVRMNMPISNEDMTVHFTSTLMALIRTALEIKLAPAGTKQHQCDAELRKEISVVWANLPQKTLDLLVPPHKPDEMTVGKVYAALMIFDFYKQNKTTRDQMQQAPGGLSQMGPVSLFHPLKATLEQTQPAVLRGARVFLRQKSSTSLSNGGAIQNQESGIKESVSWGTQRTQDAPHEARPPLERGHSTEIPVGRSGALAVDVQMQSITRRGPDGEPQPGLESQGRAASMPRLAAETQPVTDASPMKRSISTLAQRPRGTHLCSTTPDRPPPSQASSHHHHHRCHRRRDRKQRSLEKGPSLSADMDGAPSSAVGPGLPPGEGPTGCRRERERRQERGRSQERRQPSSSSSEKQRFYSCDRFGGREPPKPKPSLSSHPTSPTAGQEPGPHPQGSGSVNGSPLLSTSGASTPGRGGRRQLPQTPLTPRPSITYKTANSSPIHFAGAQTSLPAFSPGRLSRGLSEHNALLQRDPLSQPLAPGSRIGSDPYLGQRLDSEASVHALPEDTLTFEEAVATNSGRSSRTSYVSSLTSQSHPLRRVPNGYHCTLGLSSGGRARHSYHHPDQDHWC
Test: disruptors of CaV2.2 binding to Mint1 – biochemical, HTRF (AID 2073)
Settings: HTRF protein-protein interaction, Mint1-CaV2.2; at 20 µM; active compounds read high
The whole screen tested about 290,000 compounds, of which about 570 (0.2%) were called active. Another 1% or so got no clear call; they are omitted. This is one part of a sample in which actives are shown more often than they occur.
For each entry below, report its inhibition value.
Numeric answer only, unit % assumed.

Output inhibition of CCOc1ccc2nc(Nc3nc4ccc(NC(C)=O)cc4s3)sc2c1
55

Note inhibition for the compound shown: COc1ccc(-c2cc(-c3ccco3)[nH]c(=O)c2C#N)cc1OC
0.3

Quickly give me recorded inhibition for CCOc1ccc2nc(NS(=O)(=O)c3ccc(NC(C)=O)cc3)sc2c1
-0.1

Query inhibition for CCOc1ccc(Oc2c(C)oc3cc(O)ccc3c2=O)cc1
15.1

Please give measured inhibition of the following entry: N#Cc1c(-c2cccc(Br)c2)cc(-c2ccco2)[nH]c1=O
53.9

Please look at this compound and report its inhibition: Cc1ccc(/C=C/C(=O)Nc2ccc(O)c3c(=O)cc(-c4ccccc4Cl)oc23)cc1
13

Complete the entry with inhibition for CCc1ccccc1NC(=O)COc1ccc(N2CC(C(N)=O)CC2=O)cc1 (stereo unspecified)
11.4

# return recorded inhibition for input Cc1cccc(Oc2sc(C(=O)c3ccccc3)c(N)c2C#N)c1C
4.2

Determine from records and report inhibition for CCc1ccc2[nH]c(C(=O)Nc3ccc(Br)c(C)n3)cc2c1
5.3

Specify reported inhibition for the compound shown: C[C@H]1[C@H](C)CC[C@]2(C)CC[C@]3(C)C(=CC[C@@H]4[C@@]5(C)CC[C@@H](O)[C@](C)(C(=O)O)[C@@H]5CC[C@]43C)[C@H]12
77

Give me measured inhibition, please, for this compound: Cc1nc(C)c(C(=O)OCC(=O)N2CCN(c3ccccc3)CC2)s1
-4.9

Please give the documented inhibition of O=C(O)/C=C/C(=O)NCc1csc2ccccc12
-5

Given Clc1ccccc1-c1nnc2sc(-c3ccc(Br)o3)nn12 , respond with its inhibition.
-3.6

Query inhibition for O=C1c2ccccc2C(=O)N1C/C=C/CN1C(=O)c2ccccc2C1=O
0

State its inhibition for this compound: COc1ccc(-c2cc(-c3ccco3)[nH]c(=O)c2C#N)cc1
24.8

Output inhibition of N#Cc1c(C(F)(F)F)cc(C2CC2)[nH]c1=O
6.1

Answer with the recorded inhibition of COc1ccc(/C=C/C(=O)N/C(=C\c2ccco2)C(=O)NCCc2nc3ccccc3[nH]2)cc1 only.
4.5

Give inhibition for the following compound: CCOc1ccc(N(CC(=O)NCc2ccco2)S(C)(=O)=O)cc1
13.2

Identify inhibition associated with the compound Cc1ccc(-c2cnn(-c3cccc([N+](=O)[O-])c3)c2N)cc1
22.4

Please list inhibition recorded for the compound CCn1c(SCC(=O)NC2CCCCC2)nnc1C(C)NC(=O)c1ccccc1F (stereo unspecified)
8.6

State its inhibition: C[C@H]1[C@H](C)CC[C@]2(C(=O)O)CC[C@]3(C)C(=CC[C@@H]4[C@@]5(C)CC[C@H](O)C(C)(C)[C@@H]5CC[C@]43C)[C@H]12
41.1
